# assayed system: HLA-A*31:01
# run description: IEDB peptide-MHC binding, purified MHC/competitive/radioactivity; filed as Kd, often an IC50 or EC50 that approximates it; bounds were set here for any values at or beyond the usual limits of such assays
# measurement conditions: source organism: Dengue virus 3 Sri Lanka/1266/2000
measurement label: pKd
Numbers only, as −log10 of the molar value.

RNKRPRLCTR has a reported pKd of 7.28

----------
# assayed system: HLA-A*24:02
# run description: IEDB peptide-MHC binding, purified MHC/competitive/fluorescence; bounds were set here for any values at or beyond the usual limits of such assays
# measurement conditions: source organism: Vaccinia virus
measurement label: IC50 (µM)
Numbers only, in µM.

IFGNLSPET has a reported IC50 of 14
